Data provenance: patent US20200338210A1

- assayed.target: T1, human ROR1 on cell lines (human, UniProt Q01973 30-937)
- T1 construct: Jeko-1 'bearing the ROR1 antigen'); also called Receptor tyrosine kinase-like orphan receptor 1
- T1 sequence (Q01973 30-937 limits assumed): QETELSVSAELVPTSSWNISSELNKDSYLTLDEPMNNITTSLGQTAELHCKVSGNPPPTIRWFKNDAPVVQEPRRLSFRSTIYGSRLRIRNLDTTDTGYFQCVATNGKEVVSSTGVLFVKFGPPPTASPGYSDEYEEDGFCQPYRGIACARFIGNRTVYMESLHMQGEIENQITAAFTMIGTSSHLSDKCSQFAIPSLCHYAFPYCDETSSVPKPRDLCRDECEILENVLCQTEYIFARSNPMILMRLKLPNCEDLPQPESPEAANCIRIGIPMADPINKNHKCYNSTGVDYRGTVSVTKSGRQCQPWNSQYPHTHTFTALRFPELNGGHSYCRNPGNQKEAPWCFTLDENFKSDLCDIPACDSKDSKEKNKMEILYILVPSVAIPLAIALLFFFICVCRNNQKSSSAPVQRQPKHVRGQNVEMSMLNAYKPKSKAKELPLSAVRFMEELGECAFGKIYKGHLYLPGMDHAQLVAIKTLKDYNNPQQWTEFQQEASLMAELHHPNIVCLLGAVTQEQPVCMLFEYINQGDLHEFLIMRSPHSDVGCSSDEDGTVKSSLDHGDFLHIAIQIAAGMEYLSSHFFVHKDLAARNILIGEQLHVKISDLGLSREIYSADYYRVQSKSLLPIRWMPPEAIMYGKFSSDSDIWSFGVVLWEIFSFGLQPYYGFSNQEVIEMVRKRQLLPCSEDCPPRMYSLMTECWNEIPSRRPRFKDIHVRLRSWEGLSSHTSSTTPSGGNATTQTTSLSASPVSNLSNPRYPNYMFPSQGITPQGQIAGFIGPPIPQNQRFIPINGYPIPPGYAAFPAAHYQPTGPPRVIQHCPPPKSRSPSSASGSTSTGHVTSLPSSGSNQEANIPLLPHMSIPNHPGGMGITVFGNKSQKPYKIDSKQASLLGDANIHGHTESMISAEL
- measurement.protocol: flow cytometry on Jeko-1 cells, FITC secondary, surface signal left after 37 C, 2.5 hr T2 (secondary only 215)
Give MFI for every item shown.
Numbers only.

binder	MFI
2A2-C-Terminal tag (antibody, V domains shown, C-terminal tag on the antibody (sequence not given), The protocol speaks of 'each ADC', so a payload may be attached; none is named; also called CT-tagged 2A2; C-terminal (CT)-tagged 2A2) VH: QVQLQQSGAELVRPGASVTLSCKASGYTFSDYEMHWVIQTPVHGLEWIGAIDPETGGTAYNQKFKGKAILTADKSSSTAYMELRSLTSEDSAVYYCTGYYDYDSFTYWGQGTLVTVSA VL: DIVMTQSQKIMSTTVGDRVSITCKASQNVDAAVAWYQQKPGQSPKLLIYSASNRYTGVPDRFTGSGSGTDFTLTISNMQSEDLADYFCQQYDIYPYTFGGGTKLEIK	750
2A2-CH1/C-Terminal double tag (antibody, V domains shown, tags in CH1 and at the C-terminus (sequences and positions not given), The protocol speaks of 'each ADC', so a payload may be attached; none is named; also called CH1/CT double-tagged 2A2) VH: QVQLQQSGAELVRPGASVTLSCKASGYTFSDYEMHWVIQTPVHGLEWIGAIDPETGGTAYNQKFKGKAILTADKSSSTAYMELRSLTSEDSAVYYCTGYYDYDSFTYWGQGTLVTVSA VL: DIVMTQSQKIMSTTVGDRVSITCKASQNVDAAVAWYQQKPGQSPKLLIYSASNRYTGVPDRFTGSGSGTDFTLTISNMQSEDLADYFCQQYDIYPYTFGGGTKLEIK	658
2A2-CH1 tag (antibody, V domains shown, tag in CH1 (sequence and position not given), The protocol speaks of 'each ADC', so a payload may be attached; none is named; also called CH1-tagged 2A2) VH: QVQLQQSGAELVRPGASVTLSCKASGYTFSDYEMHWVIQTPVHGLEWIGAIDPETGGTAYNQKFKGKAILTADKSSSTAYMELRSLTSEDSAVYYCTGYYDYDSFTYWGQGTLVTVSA VL: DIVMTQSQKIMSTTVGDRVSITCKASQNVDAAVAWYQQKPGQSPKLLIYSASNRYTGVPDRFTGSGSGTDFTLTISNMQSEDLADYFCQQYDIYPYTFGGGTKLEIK	786

Now let's try a different one.
Query block: Give the value of MFI reported for the following: 2A2-untagged (antibody, V domains shown, also called untagged 2A2) VH: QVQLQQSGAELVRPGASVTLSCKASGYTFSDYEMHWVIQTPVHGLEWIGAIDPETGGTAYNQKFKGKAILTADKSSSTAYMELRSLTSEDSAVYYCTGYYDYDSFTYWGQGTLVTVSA VL: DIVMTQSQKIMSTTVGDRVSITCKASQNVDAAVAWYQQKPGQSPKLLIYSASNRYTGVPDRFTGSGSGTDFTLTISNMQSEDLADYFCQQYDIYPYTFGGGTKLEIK
Result block: 882
